Hey, just so you know, these numbers are from paper PMC8777613.

assay: MTT dye reduction viability test, HaCaT; type: cell-based, human; conditions: human, HaCaT cells (immortal keratinocytes), HaCaT, 60 µM, 72 h, representative MTT result (Table S1 B)
EXPERIMENTAL READOUT: viability at 72 h, 60 µM

MOLECULE | REPORTED MEASUREMENT
CC=CC=CC(=O)Oc1ccc2c(=O)cc(-c3ccccc3)oc2c1 [7-Sorbic-Flavone, 7-hydroxy-flavone sorbic ester] | 41%

Per the records, this molecule ( CCCCCCCCC=CCCCCCCCC(=O)Oc1ccc2c(=O)cc(-c3ccccc3)oc2c1 [7-Oleic-Flavone, 7-hydroxy-flavone oleic ester] ) has viability at 72 h, 60 µM equal to 39.9%

For this molecule ( CCC=CCC=CCC=CCCCCCCCC(=O)Oc1ccc2c(=O)cc(-c3ccccc3)oc2c1 [7-Linolenic-Flavone, 7-hydroxy-flavone linolenic ester] ), measured viability at 72 h, 60 µM is 19.4%

Form field viability at 72 h, 60 µM, entry CCCCCCCCCCCCCCCCCC(=O)Oc1ccc2c(=O)cc(-c3ccccc3)oc2c1 [7-Stearic-Flavone, 7-hydroxy-flavone stearic ester] : 39.8%

According to the records, this molecule O=C1CC(c2ccccc2)Oc2ccc(O)cc21 (stereo not drawn) [6-Hydroxy-Flavanone, 6-hydroxy-flavanone, reference compound] displays viability at 72 h, 60 µM of 104%

Input CCCCCC=CCC=CCCCCCCCC(=O)Oc1ccc2c(=O)cc(-c3ccccc3)oc2c1 [7-Linoleic-Flavone, 7-hydroxy-flavone linoleic ester] . Output viability at 72 h, 60 µM: 57%

What the record says about CC=CC=CC(=O)Oc1ccc2c(c1)C(=O)CC(c1ccccc1)O2 (stereo not drawn) [6-Sorbic-Flavanone, 6-hydroxy-flavanone sorbic ester] : viability at 72 h, 60 µM is 75.7%

In plain terms, CCCCCCCCC=CCCCCCCCC(=O)Oc1ccc2c(c1)C(=O)CC(c1ccccc1)O2 (stereo not drawn) [6-Oleic-Flavanone, 6-hydroxy-flavanone oleic ester] has a documented viability at 72 h, 60 µM of 26.4%

Sample CCC=CCC=CCC=CCCCCCCCC(=O)Oc1ccc2c(c1)C(=O)CC(c1ccccc1)O2 (stereo not drawn) [6-Linolenic-Flavanone, 6-hydroxy-flavanone linolenic ester] ; viability at 72 h, 60 µM observed: 38.1%

Data point: CCCCCC=CCC=CCCCCCCCC(=O)Oc1ccc2c(c1)C(=O)CC(c1ccccc1)O2 (stereo not drawn) [6-Linoleic-Flavanone, 6-hydroxy-flavanone linoleic ester] ; viability at 72 h, 60 µM = 73.4%

Recorded viability at 72 h, 60 µM (molecule CCCCCCCCCCCCCCCCCC(=O)Oc1ccc2c(c1)C(=O)CC(c1ccccc1)O2 (stereo not drawn) [6-Stearic-Flavanone, 6-hydroxy-flavanone stearic ester] ): 47.8%

Value of measured viability at 72 h, 60 µM for the entry O=c1cc(-c2ccccc2)oc2ccc(O)cc12 [Compound 13, 6-Hydroxy-Flavone, reference compound] : 95.1%
